Sourced from patent US20030068675

- SYSTEM: ZFP SBS#323 (synthetic)
- Sequence (chain, as listed by the source): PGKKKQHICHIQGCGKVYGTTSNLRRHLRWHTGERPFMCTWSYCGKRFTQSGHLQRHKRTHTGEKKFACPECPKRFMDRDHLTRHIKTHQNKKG
- ASSAY_COMMENT: EMSA
- ASSAY_SETUP: tags: MBP fusion
OUTCOME_MEASURE: Kd (nM)
Write it as a number; the unit nM goes unstated.

Prompt line: Suppose we examine the binder GGCGGAGAT (dsDNA) DNA 1: GGCGGAGAT DNA 2: ATCTCCGCC ; what Kd value has been reported?
Response line: 600
